# system: human CCR6 (Homo sapiens, UniProt P51684)
# Sequence (P51684 whole entry): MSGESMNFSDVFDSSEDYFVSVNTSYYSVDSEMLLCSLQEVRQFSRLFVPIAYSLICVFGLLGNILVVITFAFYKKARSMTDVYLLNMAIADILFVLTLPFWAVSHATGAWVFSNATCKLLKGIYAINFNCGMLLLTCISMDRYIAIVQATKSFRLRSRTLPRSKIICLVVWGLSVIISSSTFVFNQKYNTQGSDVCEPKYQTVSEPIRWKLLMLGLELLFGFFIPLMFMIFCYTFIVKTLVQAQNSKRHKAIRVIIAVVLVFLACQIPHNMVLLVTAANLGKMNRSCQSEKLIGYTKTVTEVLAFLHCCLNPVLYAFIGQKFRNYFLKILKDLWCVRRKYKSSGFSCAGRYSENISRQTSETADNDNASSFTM
# experimentalProtocol: Human CCR6-CRE reporter assay
# Type: cell-based
# Set-up: The second construct contained the open reading frame of human CCR6 in the pUNO1 backbone; host or cells: 293FT cells (transient transfection with TransIT-293)
# conditionParameters: 293FT cells transfected with human CCR6 and CRE-luciferase; Forskolin + CCL20, 5 h; relative Log IC50; read-out: CCR6-CRE reporter (converted)
readoutName: log10(IC50) (log10 of the value in nM)
Please be aware that the numbers have been log10-transformed from IC50 in nM.

O=c1[nH]nc2ccc(-c3ccc(S(=O)(=O)N4CCC(Nc5ccc(OC(F)(F)F)cn5)CC4)cc3)cn12 [Example 24]; 1.90
N#Cc1ccc(-c2ccc(S(=O)(=O)[C@H]3CC[C@H](Nc4ccc(OC(F)(F)F)cc4)CC3)cc2)cc1 [Example 39]; 2.00
N=S(=O)(c1ccc(-c2ccc3nccn3c2)cc1)[C@H]1CC[C@H](Nc2ccc(OC(F)(F)F)cn2)CC1 (stereo partly shown) [Example 54]; 2.80
NC(=O)c1cc(-c2ccc(S(=O)(=O)[C@H]3CC[C@H](Nc4ccc(SC(F)(F)F)cc4)CC3)cc2)ccn1 [Example 49]; 1.80
N=S(=O)(c1ccc(-c2ccc3nccn3c2)cc1)[C@H]1CC[C@H](Nc2ccc(SC(F)(F)F)cc2)CC1 (stereo partly shown) [Example 52]; 2.20
O=c1[nH]nc2ccc(-c3ccc(S(=O)(=O)N4CCC(Nc5ccc(SC(F)(F)F)cn5)CC4)cc3)cn12 [Example 74]; 1.90
Cc1cc(-c2ccc(S(=O)(=O)N3CCC(Nc4ccc(SC(F)(F)F)cc4)CC3)cc2)cn2c(C(C)C)cnc12 [Example 33]; 2.00
CC(C)c1cnc2ccc(-c3ccc(S(=O)(=O)N4CCC(Nc5ccc(SC(F)(F)F)cc5)CC4)cc3)cn12 [Example 31]; 1.70

Prompt: Supply recorded log10(IC50) for NC(=O)c1cccc(-c2ccc(S(=O)(=O)N3CCC(Nc4ccc(OC(F)(F)F)cn4)CC3)cc2)c1 [Example 9] here.
Response: 1.90

Prompt: Input Cc1n[nH]c2ccc(-c3ccc(S(=O)(=O)N4CCC(Nc5ccc(OC(F)F)cc5)CC4)cc3)cc12 [Example 27] , output reported log10(IC50).
Response: 2.30

###

# system: human CCR6 (Homo sapiens, UniProt P51684)
# experimentalProtocol: Human CCR6-CRE reporter assay
# Type: cell-based
# Design: The second construct contained the open reading frame of human CCR6 in the pUNO1 backbone; host or cells: 293FT cells (transient transfection with TransIT-293)
# conditionParameters: 293FT cells transfected with human CCR6 and CRE-luciferase; Forskolin + CCL20, 5 h; relative Log IC50; read-out: CCR6-CRE reporter (converted)
Listed here are molecules together with their documented IC50.
Respond numerically; units are nM and should not be typed.

Sample records with IC50:
CC(C)c1cnc2ccc(-c3ccc(S(=O)(=O)[C@H]4CC[C@H](Nc5cccc(SC(F)(F)F)c5)CC4)cc3)cn12; 100
N#Cc1c[nH]c2ccc(-c3ccc(S(=O)(=O)N4CCC(Nc5ccc(OC(F)(F)F)cc5)CC4)cc3)cc12; 79.4
CC(C)c1nnc2ccc(-c3ccc(S(=O)(=O)N4CCC(Nc5ccc(OC(F)(F)F)cn5)CC4)cc3)cn12; 31.6

Let us move to another entry and its IC50.
Prompt: Provide measured IC50 value, entry: CNC(=O)c1cccc(-c2ccc(S(=O)(=O)N3CCC(Nc4ccc(OC(F)(F)F)cc4)CC3)cc2)c1
Response: 100
